# Tested on: SNB-75 CNS
# PROCEDURE_TEXT: NCI tumour cell line growth inhibition, 48 h; in the data active = GI50 below about 0.43 µM; inactive = the rest
Permitted responses: True for active, False for inactive

Q: So what was the verdict on CC[C@@]1(O)C(=O)OCc2c1cc1n(c2=O)Cc2cc3c(OC)cccc3nc2-1 in this test?
Ans: True

Q: So what was the verdict on COC(=O)CC12CC(NC(=O)c3csc([C@@H](C[C@H](C(C)C)N(C)C(=O)[C@@H](NC(=O)[C@H]4CCCCN4C)C(C)C)OC(C)=O)n3)(C1)C2 in this test?
Ans: True

Q: So what was the verdict on CC(=O)N[C@@H](Cc1ccc(OP(=O)(O)O)cc1)C(=O)N[C@H]1CCC(=O)N2CCC[C@@H](C(=O)NCc3cccc4ccccc34)N2C1=O in this test?
Ans: False

Q: So what was the verdict on O=C(CSc1nc2ccc([N+](=O)[O-])cc2[nH]1)Nc1ccc([N+](=O)[O-])cc1 in this test?
Ans: False

###

# System: A549 NSCLC
# PROCEDURE_TEXT: NCI tumour cell line growth inhibition, 48 h; in the data active = GI50 below about 0.43 µM; inactive = the rest
Permitted responses: Yes (active), No (inactive)

Solved entries:
>  <COMPOUND>
CCOC(=O)Cc1csc(Nc2nc(O)c(C3=c4ccccc4=NC3=O)s2)n1

>  <EXPERIMENTAL_TARGET>
A549 NSCLC

>  <ASSIGNED_CATEGORY>
No

$$$$
>  <COMPOUND>
Nc1n[nH]c2ccc([C@H]3[C@@H]4C5CCC(C5)[C@@H]4c4c(ccc5[nH]ncc45)N3S(=O)(=O)C3CC3)cc12 (stereo not given in full)

>  <EXPERIMENTAL_TARGET>
A549 NSCLC

>  <ASSIGNED_CATEGORY>
Yes

$$$$
>  <COMPOUND>
CC(=O)N[C@@H](Cc1ccc(OP(=O)(O)O)cc1)C(=O)N[C@H]1CCC(=O)N2CCC[C@@H](C(=O)NCc3cccc4ccccc34)N2C1=O

>  <EXPERIMENTAL_TARGET>
A549 NSCLC

>  <ASSIGNED_CATEGORY>
No

$$$$
>  <COMPOUND>
O=C(CSc1nc2ccc([N+](=O)[O-])cc2[nH]1)Nc1ccc([N+](=O)[O-])cc1

>  <EXPERIMENTAL_TARGET>
A549 NSCLC

>  <ASSIGNED_CATEGORY>
No

$$$$

Q: So what was the verdict on CN(CCNc1ccc(C(=N)N)cc1)c1ccc(C(=N)N)cc1 in this test?
Ans: Yes

Q: So what was the verdict on Clc1ccc(Nc2ncnc3ccccc23)cc1 in this test?
Ans: No

Q: So what was the verdict on Fc1cc(C2=Nn3c(nnc3-c3cc(F)c(Cl)cc3Cl)SC2)c(Cl)cc1Cl in this test?
Ans: No

Q: So what was the verdict on O=C(NC(=S)Nc1ccc(-c2nc3ccccc3[nH]2)cc1)c1ccc2ccccc2c1 in this test?
Ans: No

Q: So what was the verdict on O=C(O)c1ccc(NCn2nc(-c3ccccc3O)oc2=S)cc1O in this test?
Ans: No

###

Hi there, I'd appreciate the recorded TGI for every entry that follows.
# Test system: NCI-H460 lung
# PROCEDURE_TEXT: NCI tumour cell line growth inhibition, 48 h

>  <SMILES_STRUCTURE>
CCCCN(CCCC)C1(c2cc3ccccc3s2)CCCCC1

>  <TGI>
27.9 µM

$$$$
>  <SMILES_STRUCTURE>
Cc1cc2c(=O)cc(-c3ccc(C(=O)O)cc3)oc2c(C(N)=O)c1C

>  <TGI>
> 100 µM

$$$$
>  <SMILES_STRUCTURE>
NNC(=S)N/N=C/c1ccccn1

>  <TGI>
8.54 µM

$$$$
>  <SMILES_STRUCTURE>
C=CC(C)(C)c1c(OC)oc2ccc(OC)c(C)c2c1=O

>  <TGI>
> 100 µM

$$$$

Please supply TGI for each of the following items, keeping them in order.
1. CCOc1ccc(-n2c(=O)c3nn4c(=O)n(-c5ccc(OCC)cc5)c(=O)c4nn3c2=O)cc1
2. CN1C[C@@H]2CC(=O)CC[C@@H]2C[C@H]1C#N

Ans:
["> 100 µM", "> 100 µM"]
